Origin of values: paper PMC6864482

# tested target: hMAO-B (Homo sapiens, UniProt P27338)
# Sequence (P27338 whole entry): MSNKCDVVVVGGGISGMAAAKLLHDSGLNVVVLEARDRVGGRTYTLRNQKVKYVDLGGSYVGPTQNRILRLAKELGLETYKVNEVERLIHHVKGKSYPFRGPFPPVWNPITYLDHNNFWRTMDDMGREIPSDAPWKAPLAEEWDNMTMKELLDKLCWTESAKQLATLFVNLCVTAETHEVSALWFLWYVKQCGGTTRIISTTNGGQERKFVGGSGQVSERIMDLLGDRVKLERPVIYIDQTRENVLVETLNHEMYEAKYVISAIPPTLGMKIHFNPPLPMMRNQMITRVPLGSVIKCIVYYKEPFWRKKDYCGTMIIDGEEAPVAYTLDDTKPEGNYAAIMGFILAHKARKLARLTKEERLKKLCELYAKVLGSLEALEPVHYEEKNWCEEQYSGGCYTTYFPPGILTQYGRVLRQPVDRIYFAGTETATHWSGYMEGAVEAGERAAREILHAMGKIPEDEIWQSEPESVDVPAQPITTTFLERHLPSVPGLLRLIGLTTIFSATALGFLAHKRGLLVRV
# test summary: MAO-Glo inhibition assay, hMAO-B
# Type: biochemical
# stated conditions: purchased (Specs) or synthesized compounds
# Protocol: The inhibition and IC50 values of the identified C7-substituted coumarin analogues were assayed by Shanghai ChemPartner Co. Ltd., using MAO-GloTM assay kit (Promega Corporation, V1402). Two human MAO enzymes (Cat#31502, Cat#31503) were purchased from Active Motif. […] Before reading the signal, the plate was incubated for 20 min at r.t. Finally, plate reader was used to measure and record the luminescent signal and corresponding data were processed using GraphPad Prism 5.
measured metric: pIC50
In plain terms, pIC50 is the concentration in mol/L turned into minus its base-10 logarithm.

Illustrative cases are given below, each with its answer.
# pIC50 lookup, item O=C(COc1ccc2c3c(c(=O)oc2c1)CCC3)c1ccc(Cl)cc1
7.74

# pIC50 lookup, item O=c1cc(C2CC2)c2ccc(Oc3nnc(-c4ccccc4)s3)cc2o1
5.21

# pIC50 lookup, item Cc1c(C)c2cc(Cl)c(Oc3nnc(-c4ccccc4)s3)cc2oc1=O
6.36

# pIC50 lookup, item Cc1cc(=O)oc2cc(OCCOc3ccccc3)ccc12
7.82

# pIC50 lookup, item Cc1c(Oc2nnc(-c3ccccc3)s2)ccc2c3c(c(=O)oc12)CCC3
5.64

We next turn to a different compound, shown below.
# pIC50 lookup, item CCCc1cc(=O)oc2c(C)c(Oc3nnc(-c4ccccc4)s3)ccc12
6.92

====

# tested target: hMAO-B (Homo sapiens)
# test summary: MAO-Glo inhibition assay, hMAO-B
# Format: biochemical
measured metric: inhibition at 10 µM
A bare number is not enough; add the unit after it.

Illustrative cases are given below, each with its answer.
# inhibition at 10 µM lookup, item C=CCOC(=O)COc1ccc2c3c(c(=O)oc2c1C)CCCC3
66%

# inhibition at 10 µM lookup, item Cc1c(OC(=O)C2CC2)ccc2c3c(c(=O)oc12)CCC3
75%

# inhibition at 10 µM lookup, item Cc1c(OCC(=O)N(C)C)ccc2c3c(c(=O)oc12)CCC3
12%

We next turn to a different compound, shown below.
# inhibition at 10 µM lookup, item Cc1cc(=O)oc2c(C)c(Oc3nnc(-c4ccccc4)s3)ccc12
64%

====

# tested target: hMAO-B (Homo sapiens, UniProt P27338)
# test summary: MAO-Glo inhibition assay, hMAO-B
# Format: biochemical
# stated conditions: Table S3, Esuprone derivatives
Measured pIC50 of individual entries
In plain terms, pIC50 is the concentration in mol/L turned into minus its base-10 logarithm.

# pIC50 lookup, item Cc1ccc(S(=O)(=O)Oc2ccc3c4c(c(=O)oc3c2C)CCC4)cc1
5.31

# pIC50 lookup, item CCS(=O)(=O)Oc1ccc2c3c(c(=O)oc2c1C)CCC3
5.64

# pIC50 lookup, item CCCc1cc(=O)oc2c(C)c(OS(=O)(=O)c3ccc(C)cc3)ccc12
5.39

New cases:
# pIC50 lookup, item CCCc1cc(=O)oc2c(C)c(OS(=O)(=O)c3ccc([N+](=O)[O-])cc3)ccc12
5.77

# pIC50 lookup, item Cc1ccc(S(=O)(=O)Oc2ccc3c(C4CC4)cc(=O)oc3c2)cc1
5.02

# pIC50 lookup, item O=c1cc(C2CC2)c2ccc(OS(=O)(=O)c3ccc([N+](=O)[O-])cc3)cc2o1
5.05

# pIC50 lookup, item Cc1c(OS(=O)(=O)c2ccc([N+](=O)[O-])cc2)ccc2c3c(c(=O)oc12)CCC3
6.23

# pIC50 lookup, item CCCc1cc(=O)oc2c(C)c(OS(=O)(=O)CC)ccc12
5.00

====

# tested target: hMAO-A (Homo sapiens, UniProt P21397)
# Sequence (P21397 whole entry): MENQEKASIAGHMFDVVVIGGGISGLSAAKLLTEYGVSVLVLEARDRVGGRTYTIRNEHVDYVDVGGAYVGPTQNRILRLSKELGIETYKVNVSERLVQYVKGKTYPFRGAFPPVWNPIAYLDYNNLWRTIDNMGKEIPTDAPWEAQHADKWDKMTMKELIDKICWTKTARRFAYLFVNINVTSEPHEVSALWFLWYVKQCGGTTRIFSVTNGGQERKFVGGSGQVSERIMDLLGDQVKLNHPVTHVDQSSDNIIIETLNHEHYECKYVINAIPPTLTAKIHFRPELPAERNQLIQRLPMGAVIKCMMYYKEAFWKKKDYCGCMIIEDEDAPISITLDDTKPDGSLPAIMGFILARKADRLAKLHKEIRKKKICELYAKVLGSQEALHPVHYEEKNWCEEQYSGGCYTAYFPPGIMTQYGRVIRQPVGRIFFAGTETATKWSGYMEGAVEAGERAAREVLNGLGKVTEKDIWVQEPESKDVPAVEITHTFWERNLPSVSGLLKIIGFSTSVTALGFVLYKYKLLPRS
# test summary: MAO-Glo inhibition assay, hMAO-A
# Assay type: biochemical
# stated conditions: purchased (Specs) or synthesized compounds; read-out: MAO-A IC50
measured metric: IC50 (µM)
Report the figure in µM without appending any unit label.

# IC50 lookup, item Cc1c(Oc2nnc(-c3ccccc3)s2)ccc2c3c(c(=O)oc12)CCC3
0.096

We next turn to a different molecule, shown below.
# IC50 lookup, item O=c1cc(C2CC2)c2ccc(Oc3nnc(-c4ccccc4)s3)cc2o1
2

====

Counter-ions that a name gives are not always drawn.
measured metric: melting point

Illustrative cases are given below, each with its answer.
# melting point lookup, item CCCc1cc(=O)oc2c(C)c(OS(=O)(=O)CC)ccc12
78 to 80 °C

# melting point lookup, item Cc1cc(=O)oc2cc(Oc3nnc(-c4ccccc4)s3)ccc12
124 to 125 °C

# melting point lookup, item CCCc1cc(=O)oc2c(C)c(OS(=O)(=O)c3ccc([N+](=O)[O-])cc3)ccc12 (as salt: benzenesulfonate)
171 to 174 °C

# melting point lookup, item CCCc1cc(=O)oc2c(C)c(OS(=O)(=O)c3ccc(C)cc3)ccc12 (as salt: benzenesulfonate)
144 to 146 °C

We next turn to a different molecule, shown below.
# melting point lookup, item Cc1c(C)c2cc(Cl)c(Oc3nnc(-c4ccccc4)s3)cc2oc1=O
171 to 173 °C

====

# tested target: hMAO-B (Homo sapiens, UniProt P27338)
# test summary: MAO-Glo inhibition assay, hMAO-B
# Assay type: biochemical
# stated conditions: purchased (Specs) or synthesized compounds
# Procedure: The inhibition and IC50 values of the identified C7-substituted coumarin analogues were assayed by Shanghai ChemPartner Co. Ltd., using MAO-GloTM assay kit (Promega Corporation, V1402). Two human MAO enzymes (Cat#31502, Cat#31503) were purchased from Active Motif. […] Before reading the signal, the plate was incubated for 20 min at r.t. Finally, plate reader was used to measure and record the luminescent signal and corresponding data were processed using GraphPad Prism 5.
pIC50: −log10 of the molar value.
measured metric: pIC50

Fill in the recorded pIC50 for this molecule, with hMAO-B (Homo sapiens, UniProt P27338) as test system: Cc1c(OCC(=O)N(C)C)ccc2c3c(c(=O)oc12)CCC3
< 5.00

Fill in the recorded pIC50 for this molecule, with hMAO-B (Homo sapiens, UniProt P27338) as test system: Cc1c(OC(=O)C2CC2)ccc2c3c(c(=O)oc12)CCC3
< 6.00

Fill in the recorded pIC50 for this molecule, with hMAO-B (Homo sapiens, UniProt P27338) as test system: C=CCOC(=O)COc1ccc2c3c(c(=O)oc2c1C)CCCC3
< 5.30

New cases:
Fill in the recorded pIC50 for this molecule, with hMAO-B (Homo sapiens, UniProt P27338) as test system: Cc1cc(=O)oc2c(C)c(Oc3nnc(-c4ccccc4)s3)ccc12
< 5.30
